assay: Metabolic stability in human liver microsomes assessed as compound remaining at 1 uM measured after 15 mins in presence of NADPH/UDPGA by LC-MS/MS analysis; type: ADME, Microsome; details: read-out: Stability
recorded metric: remaining at 0.25 h, 1 µM (%)

O=C(C1CC1)N1CCC(CN(Cc2ccc([N+](=O)[O-])s2)Cc2ccc(F)cc2F)C1 (stereo not drawn) : 1.1

(1) CCOC(=O)N1CCC(CN(Cc2ccc(Cl)cc2)Cc2ccc([N+](=O)[O-])s2)C1 (stereo not drawn) [SR9009]
(2) O=C(C1CC1)N1CCC(CN(Cc2ccc(Cl)c(Cl)c2)Cc2ccc([N+](=O)[O-])s2)C1 (stereo not drawn)
Please state the entry with greater remaining at 0.25 h, 1 µM among 1 and 2 . Reply with the label of the item you choose.
2
(2: 4.6%, 1: 0.94%)

Attribution: ChEMBL document CHEMBL6127017
